system: antibodies in sera from SARS patients (sera 1a, 1b, 2, 6, 37, 62, London, SARS-yellow, SARS-green); type: binding, human
Please go through the items and note down their Binding of serum 1b to looped/cyclic peptide (PEPSCAN-ELISA).
The reply should be a number, written without any unit.

Asked: Query (sequence): LYLYALIYFLQCINA ; field requested: Binding of serum 1b to looped/cyclic peptide (PEPSCAN-ELISA)
Given back: 0.3

Asked: Query (sequence): VIGVAFLAVFQSATK ; field requested: Binding of serum 1b to looped/cyclic peptide (PEPSCAN-ELISA)
Given back: 0.3

Asked: Query (sequence): AQFLYLYALIYFLQC ; field requested: Binding of serum 1b to looped/cyclic peptide (PEPSCAN-ELISA)
Given back: 0.3

Asked: Query (sequence): IIALNKRWQLALYKG ; field requested: Binding of serum 1b to looped/cyclic peptide (PEPSCAN-ELISA)
Given back: 0.4

Asked: Query (sequence): NPLLYDANYFVCWHT ; field requested: Binding of serum 1b to looped/cyclic peptide (PEPSCAN-ELISA)
Given back: 0.4

Asked: Query (sequence): QFLYLYALIYFLQCI ; field requested: Binding of serum 1b to looped/cyclic peptide (PEPSCAN-ELISA)
Given back: 0.3
